Compiled record: pIC50 values for Glycogen synthase kinase-3 beta (Homo sapiens, UniProt P49841) across several sources.
pIC50: −log10 of the molar value.

Worked cases, pIC50 given:
compound	assay.result
CN1CCN(CCN2CCC(=O)NCCCc3cc(ccn3)-c3ncnc(n3)Nc3cccc(c3)C2)CC1	6.00 to 7.00
CN(C)CCNC(=O)c1cn2c(NCCNc3ccc(C#N)cn3)nc(-c3ccc(Cl)cc3Cl)cc2n1	7.27
CC1CN(c2ccncc2NC(=O)c2ccnn3cc(-c4ccc(C(F)(F)F)cc4)nc23)CCO1 (centres unmarked)	8.85
FC(F)(F)c1ccc(NCCNc2ncc(-c3ncc[nH]3)c(-c3ccc(Cl)cc3Cl)n2)nc1	≥ 6.00
CS(=O)(=O)c1cnc(NCCNc2ccc([N+](=O)[O-])cn2)nc1-c1ccc(C#N)cc1	≥ 6.00
CCOC(=O)N1CCn2c(nc(-c3ccncn3)cc2=O)C(NC(=O)c2ccccc2OC)C1 (racemic)	8.30
N#Cc1ccc(-c2nc(NCCNc3ccc([N+](=O)[O-])cn3)nc(-c3ccccc3)c2C(=O)O)cc1	≥ 6.00
O=C(O)c1ccc(-c2nc(NCCNc3ccc([N+](=O)[O-])cn3)nc(-c3ccc([N+](=O)[O-])cc3)c2C(=O)O)cc1	≥ 6.00

Incoming: Item under review: `NC(=O)c1ccc(-c2ccnc(NCc3cc(Cl)cc(Cl)c3)n2)cc1` . Reported pIC50?
Outgoing: ≥ 5.00

Incoming: Item under review: `O=C(NCc1ccc(Br)cc1)c1ccc(-c2ccnc(NCCNc3ccc([N+](=O)[O-])cn3)n2)cc1` . Reported pIC50?
Outgoing: ≥ 5.00

====

Compiled record: IC50 values for Glycogen synthase kinase-3 beta (Homo sapiens) across several sources.

Worked cases, IC50 given:
compound	target	IC50
Cc1cccc2c(C3=C(c4c(Cl)ccc5[nH]c(CN(C)C)cc45)C(=O)NC3=O)c[nH]c12	Glycogen synthase kinase-3 beta (Homo sapiens)	25 nM
O=C(Nc1n[nH]c2nc(-c3cnn4ccccc34)c(F)cc12)C1CC1	Glycogen synthase kinase-3 beta (Homo sapiens)	10200 nM
CC(C)(C)NC(=O)c1cnc(NCCNc2ccc([N+](=O)[O-])cn2)nc1-c1ccc(C#N)cc1	Glycogen synthase kinase-3 beta (Homo sapiens)	≤ 1000 nM

Incoming: What value of IC50 on Glycogen synthase kinase-3 beta (Homo sapiens) does `Nc1nc(NCCNc2ncc(N3CCOCC3)c(-c3ccc(Cl)cc3Cl)n2)ccc1[N+](=O)[O-]` have?
Outgoing: ≤ 1000 nM

Incoming: What value of IC50 on Glycogen synthase kinase-3 beta (Homo sapiens) does `CN(C)CCNS(=O)(=O)c1ccc(/C=N/Nc2ncnc3c2cnn3-c2ccccn2)cc1` have?
Outgoing: 100 to 1000 nM

Incoming: What value of IC50 on Glycogen synthase kinase-3 beta (Homo sapiens) does `CCOC(=O)c1cnc(NCCNc2ccc([N+](=O)[O-])c(N)n2)nc1-c1ccc(-c2cnco2)cc1` have?
Outgoing: ≤ 1000 nM

====

pIC50: −log10 of the molar value.
Compiled record: pIC50 values for Glycogen synthase kinase-3 beta (Homo sapiens) across several sources.
measurement.kind: pIC50

compound	measurement.kind	assay.result
CN1CCN(c2ccc(C(F)(F)F)c(C3=C(c4c[nH]c5ccccc45)C(=O)NC3=O)n2)CC1	pIC50	7.74

A. N#Cc1ccc(NCCNc2nc(-c3ccc(Cl)cc3Cl)cc3nc(C(=O)NCC(=O)O)cn23)nc1
B. Cc1nc(C)n2nc(-c3ccccc3)nc(NCCNc3ccc(C#N)cn3)c12
C. CC1CN(c2cc(F)ncc2NC(=O)c2ccnn3cc(-c4ccccc4)nc23)CCO1 (stereo not drawn)
Incoming: Kindly order the items shown according to pIC50, from the highest value down. Please reply with the labels ordered as requested. Many thanks.
Outgoing: C, A, B
(C: 9.22, A: 8.30, B: 6.51)

====

Compiled record: IC50 values for Glycogen synthase kinase-3 beta (Homo sapiens, UniProt P49841) across several sources.

Worked cases, IC50 given:
molecule	IC50
CCOC(=O)c1c(CC)nc(NCCNc2ccc([N+](=O)[O-])cn2)nc1-c1ccc(C(N)=O)cc1	≤ 1000 nM
COC(=O)c1sc(NCCNc2nc(-c3ccc(Cl)cc3Cl)cc3nccn23)nc1N	22 nM
O=C(c1ccc(F)nc1)N1CCC[C@H]1c1nc(Nc2cc(C3CC3)[nH]n2)c2cccn2n1	290 nM
Cc1cccc(CNc2nccc(-c3ccc(C(N)=O)cc3)n2)c1	≤ 10000 nM
O=c1ccccn1-c1cnc(NCCNc2ccc([N+](=O)[O-])cn2)nc1-c1ccc(Cl)cc1Cl	≤ 1000 nM
N#Cc1ccc(-c2nc(NCCNc3ccc([N+](=O)[O-])cn3)ncc2C#N)cc1	≤ 1000 nM
N#Cc1ccc(-c2nc(NCCNc3ccc([N+](=O)[O-])cn3)ncc2C(=O)OCC(O)CN2CCOCC2)cc1 (stereo not drawn)	≤ 1000 nM
O=[N+]([O-])c1ccc(NCCN(CCN2CCOCC2)c2ncc(-n3ccnc3)c(-c3ccc(Cl)cc3Cl)n2)nc1	≤ 1000 nM
CCCS(=O)(=O)Nc1ccc(F)c(C(=O)c2c[nH]c3ncccc23)c1F	≤ 10000 nM
CC(C)(C)OC(=O)c1cnc(NCCNc2ccc([N+](=O)[O-])cn2)nc1-c1ccc(C#N)cc1	≤ 1000 nM

Incoming: What value of IC50 on Glycogen synthase kinase-3 beta (Homo sapiens, UniProt P49841) does `CCOC(=O)c1cnc(NCCNc2ccc([N+](=O)[O-])cn2)nc1-c1ccc2ccccc2c1` have?
Outgoing: ≤ 1000 nM

Incoming: What value of IC50 on Glycogen synthase kinase-3 beta (Homo sapiens, UniProt P49841) does `CN1CCN(c2ccc(NCCNc3ccc(C#N)cn3)nc2-c2ccc(Cl)cc2Cl)C(=O)C1` have?
Outgoing: ≤ 10000 nM

Incoming: What value of IC50 on Glycogen synthase kinase-3 beta (Homo sapiens, UniProt P49841) does `CNCc1cccc(-c2cccc(CNc3nccc(-c4ccc(C(N)=O)cc4)n3)c2)c1` have?
Outgoing: ≤ 10000 nM

Incoming: What value of IC50 on Glycogen synthase kinase-3 beta (Homo sapiens, UniProt P49841) does `O=C1CCN2CCN(CC2)Cc2cccc(c2)Nc2ncnc(n2)-c2ccnc(c2)CCCN1` have?
Outgoing: 10 to 100 nM

====

Compiled record: pIC50 values for Glycogen synthase kinase-3 beta (Homo sapiens, UniProt P49841) across several sources.
pIC50: −log10 of the molar value.

Worked cases, pIC50 given:
compound	pIC50
COc1cc(Cl)ccc1C(=O)NC1CNCCn2c1nc(-c1ccncn1)cc2=O (single isomer, unassigned; (+))	9.52
N#Cc1ccc(-c2nc(NCCNc3ccc([N+](=O)[O-])cn3)nc(-c3cccc([N+](=O)[O-])c3)c2C(=O)O)cc1	≥ 6.00
COc1ccc(OC)c(CCNc2nccc(-c3cccnc3)n2)c1	≥ 5.00
CC1CN(c2ccncc2NC(=O)c2ccnn3cc(C4=CCCCC4)nc23)CCO1 (centres unmarked)	8.80
O=C(NC1CCNCC1)c1n[nH]cc1NC(=O)c1c(F)cccc1Cl	> 5.00

Incoming: What value of pIC50 on Glycogen synthase kinase-3 beta (Homo sapiens, UniProt P49841) does `Nc1nc(NCCNc2nccc(-c3ccc(C(=O)NCc4cccc(Br)c4)cc3)n2)ccc1[N+](=O)[O-]` have?
Outgoing: ≥ 5.00

Incoming: What value of pIC50 on Glycogen synthase kinase-3 beta (Homo sapiens, UniProt P49841) does `O=C(Nc1cnccn1)Nc1ccnc2ccc(Br)cc12` have?
Outgoing: > 7.00

Incoming: What value of pIC50 on Glycogen synthase kinase-3 beta (Homo sapiens, UniProt P49841) does `NC(=O)c1ccc(-c2ccnc(NCc3cccc([N+](=O)[O-])c3)n2)cc1` have?
Outgoing: ≥ 5.00

====

Compiled record: IC50 values for Glycogen synthase kinase-3 beta (Homo sapiens, UniProt P49841) across several sources.
measurement.kind: IC50 (µM)

Worked cases, IC50 given:
compound	measurement.kind	assay.result
O=C(O)c1cc([N+](=O)[O-])ccc1NCCc1c[nH]c2ccccc12	IC50	14.2
CC(=O)Nc1cccc(-c2ccnc(Nc3cccc([N+](=O)[O-])c3)n2)c1	IC50	0.14
Oc1cccc(Nc2nccc(-c3cccc(Cn4cncn4)c3)n2)c1	IC50	0.041
CC(=O)Oc1ccccc1C(=O)NC1COCCn2c1nc(-c1ccncn1)cc2=O (racemic)	IC50	0.01

1. N#CC1CCN(c2ccncc2NC(=O)c2ccnn3cc(-c4ccccc4)nc23)CC1
2. O=[N+]([O-])c1cccc(Nc2nccc(-c3ccc(CCn4cncn4)cc3)n2)c1
Incoming: Which is greater in IC50, the first item 1 or the second item 2 ? Pick one and reply with its label.
Outgoing: 2

====

Compiled record: IC50 values for Glycogen synthase kinase-3 beta (Homo sapiens, UniProt P49841) across several sources.
measurement.kind: IC50 (nM)

a. O=[N+]([O-])c1cccc(Nc2nccc(-c3cccc(Cn4cncn4)c3)n2)c1
b. CN1CCC2(CC1)CCn1c(nc(-c3ccncc3)cc1=O)N2CC(=O)c1ccccc1
c. COc1ccc2[nH]cc(CCNc3ccc(C(=O)O)cc3[N+](=O)[O-])c2c1
Incoming: Order the entries above from lowest to highest IC50. Please reply with the labels ordered as requested. Many thanks.
Outgoing: b, a, c
